- measurement-target: PBP4 of P. aeruginosa ATCC 27853 (Pseudomonas aeruginosa, UniProt Q9HZG1)
- Sequence (Q9HZG1 entry or part of it): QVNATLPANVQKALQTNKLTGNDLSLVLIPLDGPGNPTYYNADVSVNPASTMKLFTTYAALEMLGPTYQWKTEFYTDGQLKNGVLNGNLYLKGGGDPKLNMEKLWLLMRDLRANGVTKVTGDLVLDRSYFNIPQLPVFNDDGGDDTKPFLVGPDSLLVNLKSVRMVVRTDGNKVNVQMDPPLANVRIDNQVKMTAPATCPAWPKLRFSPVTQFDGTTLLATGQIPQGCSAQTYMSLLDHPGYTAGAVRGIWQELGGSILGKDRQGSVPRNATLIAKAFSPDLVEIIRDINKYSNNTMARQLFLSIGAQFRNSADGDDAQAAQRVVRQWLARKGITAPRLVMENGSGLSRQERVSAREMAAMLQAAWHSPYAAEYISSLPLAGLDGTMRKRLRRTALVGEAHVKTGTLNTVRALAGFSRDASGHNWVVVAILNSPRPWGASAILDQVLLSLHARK
- assay-name: competition with […]benzylpenicillin for PBPs
- experimental-context: covalent; read-out: IC50 (μg/ml) / P. aeruginosa ATCC 27853 / Cefiderocol
pIC50: −log10 of the molar value.
measurement-kind: pIC50

query_smiles=CC(C)(O/N=C(\C(=O)N[C@@H]1C(=O)N2C(C(=O)[O-])=C(C[n+]3ccccc3)CS[C@H]12)c1csc(N)n1)C(=O)O measurement_kind=pIC50 reported_result="< 5.14"

Annotate the compound CC(C)(O/N=C(\C(=O)N[C@@H]1C(=O)N2C(C(=O)[O-])=C(C[N+]3(CCNC(=O)c4ccc(O)c(O)c4Cl)CCCC3)CS[C@H]12)c1csc(N)n1)C(=O)O with its measured pIC50.
< 5.27

---

- measurement-target: PBP1a of E. coli NIHJ JC-2 (Escherichia coli, UniProt P02918)
- Construct: gene mrcA
- assay-name: competition with […]benzylpenicillin for PBPs
- Format: binding
- experimental-context: covalent; read-out: IC50 (μg/ml) / E. coli NIHJ JC-2 / Ceftazidime
measurement-kind: IC50

Annotate the compound CC(C)(O/N=C(\C(=O)N[C@@H]1C(=O)N2C(C(=O)[O-])=C(C[n+]3ccccc3)CS[C@H]12)c1csc(N)n1)C(=O)O with its measured IC50.
> 7.32 µM

---

- measurement-target: PBP2 of E. coli NIHJ JC-2 (Escherichia coli)
- Construct: gene mrdA
- Sequence (P0AD65 whole entry): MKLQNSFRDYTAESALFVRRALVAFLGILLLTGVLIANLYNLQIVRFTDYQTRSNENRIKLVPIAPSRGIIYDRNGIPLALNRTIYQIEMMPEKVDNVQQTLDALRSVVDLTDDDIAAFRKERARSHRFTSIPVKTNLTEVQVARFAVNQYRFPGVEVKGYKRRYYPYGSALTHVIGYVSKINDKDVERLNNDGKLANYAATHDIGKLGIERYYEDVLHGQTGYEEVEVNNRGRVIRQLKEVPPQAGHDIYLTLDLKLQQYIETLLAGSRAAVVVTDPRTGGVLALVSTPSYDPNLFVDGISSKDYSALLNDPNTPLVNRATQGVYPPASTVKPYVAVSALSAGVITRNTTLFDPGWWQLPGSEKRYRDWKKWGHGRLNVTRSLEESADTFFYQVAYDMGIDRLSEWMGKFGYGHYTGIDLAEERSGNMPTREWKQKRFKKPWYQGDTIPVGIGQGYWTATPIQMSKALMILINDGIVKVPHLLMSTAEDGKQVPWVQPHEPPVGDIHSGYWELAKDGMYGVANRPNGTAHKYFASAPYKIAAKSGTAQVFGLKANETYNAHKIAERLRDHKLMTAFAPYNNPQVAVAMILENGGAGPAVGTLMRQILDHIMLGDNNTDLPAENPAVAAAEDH
- assay-name: competition with […]benzylpenicillin for PBPs
- Type: binding
- experimental-context: covalent; read-out: IC50 (μg/ml) / E. coli NIHJ JC-2 / Ceftazidime
measurement-kind: IC50

Annotate the compound CC(C)(O/N=C(\C(=O)N[C@@H]1C(=O)N2C(C(=O)[O-])=C(C[n+]3ccccc3)CS[C@H]12)c1csc(N)n1)C(=O)O [ceftazidime] with its measured IC50.
> 7.32 µM

---

- measurement-target: PBP1b of E. coli NIHJ JC-2 (Escherichia coli, UniProt P02919)
- Construct: gene mrcB
- Sequence (P02919 whole entry): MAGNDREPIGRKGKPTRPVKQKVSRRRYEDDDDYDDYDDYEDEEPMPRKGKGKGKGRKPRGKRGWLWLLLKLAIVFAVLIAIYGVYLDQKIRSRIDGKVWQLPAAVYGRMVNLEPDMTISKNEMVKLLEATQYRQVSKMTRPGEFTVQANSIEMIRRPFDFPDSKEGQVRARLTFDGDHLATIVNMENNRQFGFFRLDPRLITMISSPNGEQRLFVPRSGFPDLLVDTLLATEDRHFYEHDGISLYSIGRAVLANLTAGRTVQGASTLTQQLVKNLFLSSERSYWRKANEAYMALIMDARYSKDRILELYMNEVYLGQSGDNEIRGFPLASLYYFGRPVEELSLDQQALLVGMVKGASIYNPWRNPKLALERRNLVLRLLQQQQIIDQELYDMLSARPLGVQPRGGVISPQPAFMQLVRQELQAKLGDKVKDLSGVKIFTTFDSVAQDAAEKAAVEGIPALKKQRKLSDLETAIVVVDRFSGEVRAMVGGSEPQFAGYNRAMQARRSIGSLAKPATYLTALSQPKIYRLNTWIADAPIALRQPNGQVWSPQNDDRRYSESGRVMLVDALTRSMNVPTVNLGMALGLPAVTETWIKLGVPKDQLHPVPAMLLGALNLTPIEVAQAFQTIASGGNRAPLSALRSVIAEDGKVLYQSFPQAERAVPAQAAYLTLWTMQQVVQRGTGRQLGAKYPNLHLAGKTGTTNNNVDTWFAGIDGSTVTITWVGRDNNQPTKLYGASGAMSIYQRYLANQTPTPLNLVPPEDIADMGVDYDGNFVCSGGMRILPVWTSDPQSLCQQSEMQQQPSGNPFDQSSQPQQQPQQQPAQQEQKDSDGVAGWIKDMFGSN
- assay-name: competition with […]benzylpenicillin for PBPs
- Assay type: binding
- experimental-context: covalent; read-out: IC50 (μg/ml) / E. coli NIHJ JC-2 / Ceftazidime
measurement-kind: IC50

Annotate the molecule CC(C)(O/N=C(\C(=O)N[C@@H]1C(=O)N2C(C(=O)[O-])=C(C[n+]3ccccc3)CS[C@H]12)c1csc(N)n1)C(=O)O with its measured IC50.
> 7.32 µM

---

- measurement-target: UniProt:P24228
- assay-name: competition with […]benzylpenicillin for PBPs
- experimental-context: covalent; read-out: IC50 (μg/ml) / E. coli NIHJ JC-2 / Ceftazidime
measurement-kind: IC50

Annotate the compound CC(C)(O/N=C(\C(=O)N[C@@H]1C(=O)N2C(C(=O)[O-])=C(C[n+]3ccccc3)CS[C@H]12)c1csc(N)n1)C(=O)O with its measured IC50.
> 1830 nM
